- Test system: THP-1 cells
- test name: Lamp1 lysosomal exocytosis assay
- Assay type: cell-based
- experimental parameters: Homo sapiens, 55 min, 55 min incubation, top dose 20 μM
measured endpoint: EC50

O=C(NCC(F)(F)F)N1CCC2(CC1)CN(S(=O)(=O)c1ccc(C(F)F)cc1)c1ccccc12 = ≥ 5.01 µM
COc1ccc(NC(=O)N2CCC3(CC2)CN(S(=O)(=O)c2ccc(C(F)F)cc2)c2ccccc23)cn1 = ≥ 5.01 µM
O=C(CCC(F)(F)F)N1CCC2(CC1)CN(S(=O)(=O)c1ccc(C(F)F)cc1)c1ccccc12 = 1.01 to 5 µM

## Input // lookup EC50 | system=THP-1 cells | key= CN(C)S(=O)(=O)c1ccc(S(=O)(=O)N2CC3(CCN(Cc4ccccc4)CC3)c3c(F)cccc32)cc1
## Output ≤ 0.5 µM
